- Test system: HCT-15 colon
- Assay notes: NCI-60 one-dose screen, 48 h
- Condition set: 10 µM unless noted
The panel holds about 83,000 compounds, 20% with a hit somewhere; the sample as a whole holds those more often. Activity calls are given as the source filed them. How the source made its calls: active means growth percent below 10; inactive means the rest.
Field 'call' accepts 1 (yes) (active), 0 (no) (inactive)

Check the results log: what was the call for Nc1cc2c(cc1Br)-c1c(C(=O)O)cccc1C2O (configuration not stated) ? 0 (no)

Could you please tell me the result logged for NC1=Nc2ccccc2N(O)N1 in this assay? 0 (no)

Short answer needed: outcome of this test for COc1ccc(C(=O)N2c3ccccc3Sc3ccccc32)c(F)c1 ? 0 (no)

Recorded test outcome, item COc1cnc2c(c1)C(=O)c1c-2n(CCCn2ccnc2)c(=O)c2cc(Cl)ccc12 0 (no)

Status in this test for CN1CCC(COc2cnc(-c3cccc(Cn4nc(-c5cccc(C#N)c5)ccc4=O)c3)nc2)CC1 ? 0 (no)

What is the recorded call for this compound in the test? C=CC[n+]1c(/C=C2\Sc3ccccc3N2C)sc(-c2ccccc2)c1-c1ccccc1 0 (no)

Dear all, I need the recorded test outcome for Cc1cc(C(O)CN(C)C)cc2c1ccc1cc(C(C)C)ccc12 (configuration not stated) , thank you. 1 (yes)

// param item: Cc1sc2c(c1C)c(=O)nc1c(-c3nc4ccccc4s3)n[nH]n12 ; yields the recorded call 0 (no)

Each compound tested received a call. Report the one for COc1ccc(C2OC(c3cc(-c4cc5ccccc5o4)nn3-c3ccccc3)=NN2C(C)=O)cc1 (configuration not stated) . 0 (no)

Each compound tested received a call. Report the one for CNC(=O)c1cc(Oc2ccc(NC(=O)Nc3ccc(Cl)c(C(F)(F)F)c3)c(F)c2)ccn1 . 1 (yes)

Assay result, entry COC(=O)[C@@H](NC(=O)[C@@H](OC)[C@@H]1Cc2cc3cc(OC4CC(OC5CC(O)C(O)C(C)O5)C(O)C(C)O4)c(C)c(O)c3c(O)c2C(=O)[C@H]1OC1CC(OC2CC(OC3CC(C)(O)C(O)C(C)O3)C(O)C(C)O2)C(O)C(C)O1)C(C)C (some centres not stated) — outcome? 0 (no)

Assay outcome for N#Cc1cc2[nH]c3ccc(OC(F)(F)F)cc3c2oc1=O : what was it? 0 (no)

How was CCn1cc(-c2ccnc3[nH]c(-c4cccc(CN(C)C)c4)cc23)c(-c2ccc(NC(=O)N(C)C)cc2)n1 classified in this test? 0 (no)

Hey, what did the test say about Cc1[nH]c(/C=C2\C(=O)Nc3ccc(F)cc32)c(C)c1C(=O)NC[C@H](O)CN1CCOCC1 ? 0 (no)

Record lookup: outcome of this test for O=C(Cn1ccnc1)Nc1ccc(-c2nc3ccccc3s2)cc1 ? 0 (no)

# outcome recorded in this test, key = COc1ccc(Cc2cc(-c3ccccc3C)n[nH]c2=O)cc1 0 (no)

I'd appreciate the recorded outcome for COc1ccc(-c2nc(N)ncc2Oc2ccccc2OC)c(O)c1 from this test. 0 (no)

For this compound, state the assay outcome: Cc1cc(C(=O)NOCCO)c(Nc2ccc(I)cc2F)n(C)c1=O 0 (no)

Which outcome did this test record for the compound Cc1cc(Nc2cc(N3CCN(C)CC3)nc(/C=C/c3ccccc3)n2)n[nH]1 ? 0 (no)

Just curious, what result did CCN(CCN(C)C)C(=O)CNCc1cc(C(N)=O)ccn1 get here? 0 (no)

# lookup: test call for CN(C)CCn1c(=O)c2c3cc4c(cc3n(CCN(C)C)c2c2ccc(Cl)cc21)OCO4 0 (no)

Please let me know the test result on file for O=C(O)c1ccc(Nc2ncc3c(n2)-c2ccc(Cl)cc2C(c2c(F)cccc2F)=NC3)cc1 . 0 (no)

What was the test verdict on Nc1nc(Nc2ccccc2)c(C=Nc2ccccc2)c(=O)[nH]1 ? 0 (no)

Kindly provide the recorded test outcome for the following compound: CN(C)C1CCN(C(=O)c2ccc(NC(=O)Nc3ccc(-c4nc(N5CCOCC5)nc(N5CCOCC5)n4)cc3)cc2)CC1 0 (no)

Could you kindly confirm the outcome this assay logged for CNC(=O)c1cc(COc2nnc(Nc3ccc(Cl)cc3)c3ccoc23)ccn1 ? 0 (no)

Field: outcome | Entry: Cn1cnc(-c2cc3nccc(Oc4ccc(NC(=S)NC(=O)Cc5ccccc5)cc4F)c3s2)c1 0 (no)

Write down the call the test reported for this compound. Item: O=C(Nc1ccc(C(=O)Nc2ccc(C3=NCCCN3)cc2)cc1)Nc1ccc(C2=NCCCN2)cc1 0 (no)

// return assay outcome for CCN(CC)C(=O)C[N+](C)(C)CCOC(c1ccccc1)c1ccccc1 0 (no)

Recorded test call requested for CC1(/C=N/NC(N)=S)NC(=O)NC1=O (configuration not stated) 0 (no)

Call for entry C=C1C(=O)O[C@H]2[C@H]1CC/C(Cn1cc(-c3cc(C)c(C)cc3C)nn1)=C\CC[C@@]1(C)O[C@@H]21 : 1 (yes)

What call does the record list for CCc1ccc(C2=C(O)C(=O)C(c3ccc(CC)cc3)=C(O)C2=O)cc1 ? 1 (yes)

Record request — test call for Cc1ccc(-c2cc3c(SCC(=O)Nc4cc(C(F)(F)F)ccc4Cl)nccn3n2)cc1 0 (no)
